From: PubChem BioAssay AID485364

TARGET_DESC: Schistosoma mansoni thioredoxin glutathione reductase (TGR) (UniProt Q962Y6)
METHOD: qHTS Assay for the Inhibitors of Schistosoma Mansoni Peroxiredoxins; note: nearly all actives have a fitted effect of over 60% in size
TEST_CONTEXT: purified TGR, DTNB reduction, TNB absorbance 405 nm; series mostly up to 114 µM
The whole screen tested about 360,000 compounds, of which about 11,000 (3.1%) were called active. Inconclusive results (about 4%) are left out. Calls come from the whole dose curve; as a rule, active = well fitted inhibition curve with a large enough effect; inconclusive = small, poorly fitted or top-dose-only effect; inactive = no such curve, though single readings can be large or run the other way. The sample holds actives, similar compounds and a random draw of the others, so the mix is not that of the screen.
Valid outcomes are listed here; reply with one: active, inactive

(Q) For `CCCC(=O)Nc1ccc(NC(=O)c2sc3ccccc3c2Cl)cc1` , what call appears in the results of this test?
(A) inactive

(Q) Subsequent entry: CC(NC(=O)CSc1nc2c(cc1C#N)CN(C)CC2)c1ccccc1 (stereo not drawn)
(A) inactive

(Q) Subsequent entry: CN1CCc2nc(SC(C(=O)O)c3ccccc3)c(C#N)c(-c3cccs3)c2C1 (stereo not drawn)
(A) active

(Q) Subsequent entry: `O=S(=O)(O)Oc1c[nH]c2ccccc12`
(A) active

(Q) Subsequent entry: `COc1ccc(C(=O)N2CCC(c3nc4ccccc4o3)CC2)cc1`
(A) inactive

(Q) Subsequent entry: `CC(C)(C)OC(=O)N1CCC(c2c(C(=O)NCc3ccccn3)cnn2-c2ccc(F)cc2)CC1`
(A) inactive

(Q) Subsequent entry: `COC(=O)c1ccc(NC(=O)CSc2n[nH]c(-c3ccccc3)n2)cc1`
(A) inactive

(Q) Subsequent entry: `O=C(NC(=S)Nc1cc(C(F)(F)F)ccc1N1CCOCC1)c1ccc(-c2cccc(Cl)c2)o1`
(A) inactive

###

TARGET_DESC: Schistosoma mansoni thioredoxin glutathione reductase (TGR)
METHOD: qHTS Assay for the Inhibitors of Schistosoma Mansoni Peroxiredoxins; note: nearly all actives have a fitted effect of over 60% in size
TEST_CONTEXT: purified TGR, DTNB reduction, TNB absorbance 405 nm; series mostly up to 114 µM
The whole screen tested about 360,000 compounds, of which about 11,000 (3.1%) were called active. Another 4% or so got no clear call; they are omitted. Calls follow the shape of the dose curve; as a rule, active = well fitted inhibition curve with a large enough effect; inconclusive = small, poorly fitted or top-dose-only effect; inactive = no such curve, though single readings can be large or run the other way. For the sample, actives were picked, then their nearest neighbours and some compounds at random.
Valid outcomes are listed here; reply with one: active, inactive

(Q) For `O=C(Nc1ccc(-c2nc3cc(NC(=O)c4ccccc4Cl)ccc3o2)cc1)c1ccccc1Cl` , what call appears in the results of this test?
(A) inactive

(Q) Subsequent entry: `O=C(NCc1ccncc1)C(=O)NCc1ccco1`
(A) inactive

(Q) Subsequent entry: `O=C(O)c1c(CNCc2cccc(F)c2)c2ccccc2n1Cc1ccccc1`
(A) inactive

(Q) Subsequent entry: COc1ccc(S(=O)(=O)NC(CC(=O)NCc2ccccc2OC)c2ccco2)cc1 (centres undefined)
(A) inactive

(Q) Subsequent entry: COc1ccc2c(c1OC)C(=O)OC2Nc1nc(-c2ccccc2)cs1 (centres undefined)
(A) active

(Q) Subsequent entry: COc1ccccc1CNC(=O)C(=O)NCC(c1ccco1)S(=O)(=O)c1ccc(F)cc1 (centres undefined)
(A) active

(Q) Subsequent entry: `O=C1CSC(=S)N1c1ccc(O)cc1`
(A) inactive

(Q) Subsequent entry: `COC(=O)CCNc1ccc2c(c1)OCCO2`
(A) inactive

(Q) Subsequent entry: `CCc1ccc2oc(-c3ccc(NC(=O)c4cc5ccccc5o4)cc3)nc2c1`
(A) inactive

(Q) Subsequent entry: `O=c1c2ccccc2oc2nc(C3CCCCC3)n(Cc3ccco3)c(=O)c12`
(A) inactive

(Q) Subsequent entry: O=C(NCCc1ccccc1)C(=O)NCC(c1ccco1)S(=O)(=O)c1ccccc1 (centres undefined)
(A) inactive

(Q) Subsequent entry: `COc1ccccc1N1CCN(S(=O)(=O)CCNC(=O)COc2ccc(F)cc2)CC1`
(A) inactive

(Q) Subsequent entry: `CCCCOC(=O)CNc1nnc(SCC(=O)OCC)[nH]c1=O`
(A) active

(Q) Subsequent entry: Cc1nn2c(c1-c1ccccc1)N=C(c1ccco1)CC2c1ccccc1 (centres undefined)
(A) active

(Q) Subsequent entry: `COc1ccccc1CNS(=O)(=O)c1ccc(C)cc1`
(A) inactive

(Q) Subsequent entry: `COc1cccc(-c2nnc3n(CCc4ccccc4)c(=O)c4ccccc4n23)c1O`
(A) inactive

(Q) Subsequent entry: `Cc1c(C(=O)N2CCCC2)oc2c1-c1nn(CC(=O)NCc3ccc(OC(C)C)cc3)cc1CC2`
(A) inactive

(Q) Subsequent entry: `Cc1ccc(Oc2c(C(F)(F)F)oc3c(CN4CCCCC4)c(O)ccc3c2=O)cc1`
(A) inactive

(Q) Subsequent entry: `CCCc1cc(-c2nc(-c3ccc(C)cc3)cs2)ccn1`
(A) inactive

(Q) Subsequent entry: CC(C)c1ccc(S(=O)(=O)N2CCN(C(C)C(=O)NC3CCCC3)CC2)cc1 (centres undefined)
(A) inactive

(Q) Subsequent entry: `C/C(=N/Nc1nc(-c2ccccc2)c(CC(=O)O)s1)c1ccccc1`
(A) active

(Q) Subsequent entry: `CCC(CC)c1nn2cc(-c3ccccc3)nc2s1`
(A) inactive

(Q) Subsequent entry: `CCOC(=O)CSc1nc(C)c(Oc2ccc(Cl)cc2Cl)c(=O)[nH]1`
(A) inactive

(Q) Subsequent entry: `CCOc1ccc(NCCC(=O)c2ccc3c(c2)OCO3)cc1`
(A) active

(Q) Subsequent entry: `CCOc1cccc(/C=N/N2C(=O)CSC2=S)c1O`
(A) active

(Q) Subsequent entry: `COC(=O)C1=C(C)NC(=O)/C1=C/c1ccc(CNS(=O)(=O)c2ccc(C)cc2)o1`
(A) active

(Q) Subsequent entry: `Cc1cc(NC(=O)COn2nnc3ccccc32)no1`
(A) inactive

(Q) Subsequent entry: `CCN(CCCNC(=O)c1cc2c(=O)n(CC)c3ccccc3c2s1)Cc1ccccc1`
(A) inactive

(Q) Subsequent entry: CCc1ccc(NC(=O)C2CCCN2S(=O)(=O)c2ccc3nc(-c4ccccc4)[nH]c3c2)cc1 (centres undefined)
(A) inactive

(Q) Subsequent entry: O=C(O)CCCC(=O)N1N=C(c2ccco2)CC1c1ccco1 (centres undefined)
(A) inactive

(Q) Subsequent entry: `Cc1ccccc1NC(=O)Cn1c(=O)n(CCc2ccccc2)c(=O)c2ccccc21`
(A) inactive

(Q) Subsequent entry: `Cc1cc(NC(=O)CS(=O)(=O)c2cn(C)c3ccccc23)no1`
(A) active

(Q) Subsequent entry: `O=[N+]([O-])c1c(NCCO)cc(Sc2nc3ccccc3s2)c2nonc12`
(A) active

(Q) Subsequent entry: `Cc1nn(C(=O)c2ccoc2C)c(N)c1-c1ccccc1`
(A) inactive

(Q) Subsequent entry: `O=C(COc1ccc(Cl)cc1)Nc1ccc2c(c1)OCO2`
(A) inactive

(Q) Subsequent entry: CCc1nn(CC(=O)NCC(C)c2ccccc2)c(=O)c2cc3occc3n12 (centres undefined)
(A) inactive

(Q) Subsequent entry: `COc1ccccc1-c1noc(CSc2nnc(-c3ccccc3)n2-c2ccc(C)c(C)c2)n1`
(A) inactive

(Q) Subsequent entry: COc1ccc(N/C=C(\C2OC(=O)c3ccccc32)[N+](=O)[O-])cc1 (centres undefined)
(A) inactive

(Q) Subsequent entry: CCS(=O)(=O)Nc1ccc(C2=NN(S(=O)(=O)c3ccc(F)cc3)C(c3ccco3)C2)cc1 (centres undefined)
(A) active
